tested on: rat DGAT2 mRNA; experiment: Dose-dependent inhibition of DGAT2 in A10 cells, 0.62-150 nM (Example 22, Table 83); type: cell-based; conditions: 150 nM
Strand notation (5' to 3'): a small letter for the sugar, then the base; units joined by * are phosphorothioate-linked, units joined directly phosphodiester-linked; [ ] holds rarer units or linkages, { } end groups; capitals alone tell only the bases. e = 2'-O-(2-methoxyethyl) (MOE); [5mC] = 5-methylcytosine; d = 2'-deoxy (DNA)
Catalogue of percent inhibition of rat DGAT2 readings, one per entry.
Write the number on its own, no unit after it.

Sample records with percent inhibition of rat DGAT2:
372578 (antisense eT*eG*dT*dG*dT*d[5mC]*dT*dT*d[5mC]*dA*d[5mC]*d[5mC]*eA*eG) [compound 372578]; 42
372563 (antisense eA*eG*d[5mC]*d[5mC]*dA*dG*dG*dT*dG*dA*d[5mC]*dA*eG*eA) [compound 372563]; 46

Please examine the following record next.
Task item: Consider the substance 372624 (antisense eT*eG*dG*dT*d[5mC]*dT*dT*dG*dT*dG*dA*dT*eT*eG) [compound 372624] and give its recorded percent inhibition of rat DGAT2.
Reply: 38
